Reference for the values: patent US10905744B2

test_description: Pharmacokinetic profile of octreotide formulations after administration into proximal jejunum (Example 8)
recorded_conditions: Sprague Dawley, rat, in vivo, sc
measurement_type: Tmax
I'd appreciate it if you wrote the number followed by its unit.

Per the records, this molecule ( C[C@@H](O)[C@@H]1NC(=O)[C@H](CCCCN)NC(=O)[C@@H](Cc2c[nH]c3ccccc23)NC(=O)[C@H](Cc2ccccc2)NC(=O)[C@@H](NC(=O)[C@H](N)Cc2ccccc2)CSSC[C@@H](C(=O)N[C@H](CO)[C@@H](C)O)NC1=O [Reference (s.c.), Octreotide] ) has Tmax equal to 1.5 h

* * *

test_description: Pharmacokinetic profile of octreotide formulations after administration into proximal jejunum (Example 8)
recorded_conditions: Sprague Dawley, rat, in vivo
measurement_type: bioavailability
I'd appreciate it if you wrote the number followed by its unit.

Per the records, this compound ( C[C@@H](O)[C@@H]1NC(=O)[C@H](CCCCN)NC(=O)[C@@H](Cc2c[nH]c3ccccc23)NC(=O)[C@H](Cc2ccccc2)NC(=O)[C@@H](NC(=O)[C@H](N)Cc2ccccc2)CSSC[C@@H](C(=O)N[C@H](CO)[C@@H](C)O)NC1=O [Reference (s.c.), Octreotide] ) has bioavailability equal to 100%

* * *

test_description: Compatibility of absorption enhancers with trace elements: dissolution in aqueous medium, visual examination (Example 1)
Type: physicochemical
recorded_conditions: desmopressin acetate + FeCl3 5 mg/ml + absorption enhancer 10 mg/ml in 2 ml aqua purificata
measurement_type: Dissolution in aqueous medium (2 ml)

INSERT INTO results (compound, measurement_type, reading) VALUES
  ('CCCCCCCCO[C@@H]1O[C@H](CO)[C@@H](O)[C@H](O)[C@H]1O [n-Octyl-b-D-glucopyranoside]', 'Dissolution in aqueous medium (2 ml)', 'Clear solution'),
  ('CCCCCCCCCCCCO[C@@H]1O[C@H](CO)[C@@H](O[C@H]2O[C@H](CO)[C@@H](O)[C@H](O)[C@H]2O)[C@H](O)[C@H]1O [n-Dodecyl-b-D-maltoside]', 'Dissolution in aqueous medium (2 ml)', 'Clear solution'),
  ('CCCCCCCC(=O)[O-].[Na+] [Sodium caprylate]', 'Dissolution in aqueous medium (2 ml)', 'Precipitation'),
  ('C[C@H](CCC(=O)[O-])[C@H]1CC[C@H]2[C@@H]3[C@H](O)C[C@@H]4C[C@H](O)CC[C@]4(C)[C@H]3C[C@H](O)[C@]12C.[Na+] [Sodium cholate]', 'Dissolution in aqueous medium (2 ml)', 'Precipitation'),
  ('CCCCCCCCCCCCOS(=O)(=O)[O-].[Na+] [Sodium dodecyl sulfate]', 'Dissolution in aqueous medium (2 ml)', 'Clear solution');

Per the records, this compound ( C[C@H](CCC(=O)O)[C@H]1CC[C@H]2[C@@H]3[C@H](O)C[C@@H]4C[C@H](O)CC[C@]4(C)[C@H]3C[C@H](O)[C@]12C [Cholic acid] ) has Dissolution in aqueous medium (2 ml) equal to Precipitation

Per the records, this compound ( CCCCCCCCCC(=O)[O-].[Na+] [Sodium caprate] ) has Dissolution in aqueous medium (2 ml) equal to Precipitation

Per the records, this compound ( CCCCCCCCCCCC(=O)OC(CC(=O)O)C[N+](C)(C)C.[Cl-] (centres unmarked) [Lauroyl carnitine HCl] ) has Dissolution in aqueous medium (2 ml) equal to Clear solution

* * *

test_description: Compatibility of absorption enhancers with trace elements: dissolution in aqueous medium, visual examination (Example 1)
Type: physicochemical
recorded_conditions: desmopressin acetate + ZnSO4 5 mg/ml + absorption enhancer 10 mg/ml in 2 ml aqua purificata
measurement_type: Dissolution in aqueous medium (2 ml)

INSERT INTO assay_data (compound, reading) VALUES
  ('O=C(O)CC(O)(CC(=O)O)C(=O)O', 'Clear solution'),
  ('CCCCCCCC(=O)[O-].[Na+] [Sodium caprylate]', 'Precipitation'),
  ('CCCCCCCCCCCCOS(=O)(=O)[O-].[Na+] [Sodium dodecyl sulfate]', 'Clear solution'),
  ('C[C@H](CCC(=O)[O-])[C@H]1CC[C@H]2[C@@H]3[C@H](O)C[C@@H]4C[C@H](O)CC[C@]4(C)[C@H]3C[C@H](O)[C@]12C.[Na+] [Sodium cholate]', 'Precipitation'),
  ('C[C@H](CCC(=O)O)[C@H]1CC[C@H]2[C@@H]3[C@H](O)C[C@@H]4C[C@H](O)CC[C@]4(C)[C@H]3C[C@H](O)[C@]12C', 'Precipitation');

Per the records, this compound ( CCCCCCCCCCCCO[C@@H]1O[C@H](CO)[C@@H](O[C@H]2O[C@H](CO)[C@@H](O)[C@H](O)[C@H]2O)[C@H](O)[C@H]1O [n-Dodecyl-b-D-maltoside] ) has Dissolution in aqueous medium (2 ml) equal to Clear solution

Per the records, this compound ( CCCCCCCCO[C@@H]1O[C@H](CO)[C@@H](O)[C@H](O)[C@H]1O [n-Octyl-b-D-glucopyranoside] ) has Dissolution in aqueous medium (2 ml) equal to Clear solution

Per the records, this compound ( CCCCCCCCCCCC(=O)OC(CC(=O)O)C[N+](C)(C)C.[Cl-] (stereo not drawn) [Lauroyl carnitine HCl] ) has Dissolution in aqueous medium (2 ml) equal to Clear solution

Per the records, this compound ( CCCCCCCCCC(=O)[O-].[Na+] [Sodium caprate] ) has Dissolution in aqueous medium (2 ml) equal to Precipitation

* * *

test_description: Pharmacokinetic profile of octreotide formulations after administration into proximal jejunum (Example 8)
recorded_conditions: Sprague Dawley, rat, in vivo, sc
measurement_type: Cmax (ng/mL)
Report as a plain number; the unit ng/mL is understood.

Per the records, this compound ( C[C@@H](O)[C@@H]1NC(=O)[C@H](CCCCN)NC(=O)[C@@H](Cc2c[nH]c3ccccc23)NC(=O)[C@H](Cc2ccccc2)NC(=O)[C@@H](NC(=O)[C@H](N)Cc2ccccc2)CSSC[C@@H](C(=O)N[C@H](CO)[C@@H](C)O)NC1=O [Reference (s.c.), Octreotide] ) has Cmax equal to 148
